method-notes: Luminescence Cell-Based Dose Response HTS to Identify Inhibitors of 5'UTR Stem-Loop Driven Prion Protein mRNA Translation in H4 Neuroglioblastoma Cells. [Related pubchem assays: 1827 (Project Summary), 1813 (Primary HTS)]
Format: functional
Activity calls are given as the source filed them.
observable: EC50

Some solved cases for reference:
CCn1c(SCC(=O)Nc2nc(C)c(C)s2)nnc1-c1cccnc1; > 120 µM (not active)
COc1ccc(OC)c(C2CC(=O)Nc3[nH]nc(-c4ccccc4)c32)c1 (stereo not drawn); > 120 µM (not active)
O=C(c1cc(-c2ccncc2)nc2c(Cl)cccc12)N1CCN(c2ccccc2F)CC1; > 120 µM (not active)
N#CCn1c2ccccc2c2nc3ccccc3nc21; > 120 µM (not active)

EC50 reading for CCOc1ccc(OCc2cccc(C(=O)O)c2)cc1 : < 0.1 µM (active)

// field: EC50; key: CCOc1cc(/C=C(/C#N)C(=O)Nc2ccc(O)cc2)cc(Br)c1O ; value = 9.51 µM (active)

Reported EC50 of CCOC(=O)c1c(C)[nH]c2c1-c1ccccc1C(=O)C2=O : 1.35 µM (active)

// recorded EC50 for CSc1nnc2c3cc(C)ccc3n(Cc3ccccc3)c2n1 : > 120 µM (not active)

====

method-notes: Luminescence Cell-Based Dose Confirmation HTS to Identify Inhibitors of Platelet Dense Granule Release. [Related pubchem assays: 1663 (Primary HTS), 1678 (Summary of Project)]
Format: functional
Calls of active or inactive are those of the source.
observable: EC50

COc1ccc(OC)c(NC(=O)CS(=O)(=O)Cc2nc(-c3ccccc3C)oc2C)c1; > 112 µM (not active)
CC(=O)c1c(C)nc2nonc2c1N; 26.6 µM (active)
O=C(CN1C(=O)NC2(CCCCCC2)C1=O)c1ccccc1; > 112 µM (not active)

// below: EC50 requested for another compound
Field EC50 (entry Cc1cc(C)c2cc(CN(Cc3ccco3)C(=O)NCc3ccccc3)c(O)nc2c1 ) reads > 112 µM (not active)

====

target-or-system: Ubiquitin-conjugating enzyme E2 N (Homo sapiens);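 note: Dose-response confirmation in a TR-FRET assay detecting UBC13-driven polyubiquitin chain formation, inhibition measured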
Sequence (P61088 whole entry): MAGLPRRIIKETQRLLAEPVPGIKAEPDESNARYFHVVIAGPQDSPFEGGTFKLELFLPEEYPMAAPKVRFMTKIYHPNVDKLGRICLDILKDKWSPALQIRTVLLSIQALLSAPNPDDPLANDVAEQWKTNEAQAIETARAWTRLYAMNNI
Type: functional
Activity calls are given as the source filed them.
Answer with one of the outcomes active, inactive

CCCCN(CC)CCCNC(=O)c1cc2c(=O)n(C)c3ccccc3c2n1C; inactive
C#CCOCCOCCOCCNc1nc(N2CCN(C(=O)[C@H]([C@@H](C)CC)n3cc([C@@H](N)Cc4ccc(O)cc4)nn3)CC2)nc(N2CCN(C(=O)[C@H](CCCCN)n3cc([C@@H](N)CO)nn3)CC2)n1; inactive
CC[C@H](C)[C@@H]1NC(=O)c2cc([N+](=O)[O-])cc(F)c2NCCCC[C@@H](C(N)=O)NC(=O)[C@H](CCCCN)NC1=O; inactive
CCOc1ccc2nc(N(CCCN(C)C)C(=O)c3ccc(C(=O)c4ccccc4)cc3)sc2c1; inactive

Next, consider the following compound.
Dear colleague, could you share the recorded outcome for CNCc1cc(Br)c(OCC(=O)Nc2ccccc2OC)c(OC)c1 when you have a moment?
active

====

target-or-system: Corticotropin-releasing factor receptor 2/Corticotropin-releasing factor-binding protein (Homo sapiens, UniProt P24387+Q13324)
Sequence (Q13324 whole entry): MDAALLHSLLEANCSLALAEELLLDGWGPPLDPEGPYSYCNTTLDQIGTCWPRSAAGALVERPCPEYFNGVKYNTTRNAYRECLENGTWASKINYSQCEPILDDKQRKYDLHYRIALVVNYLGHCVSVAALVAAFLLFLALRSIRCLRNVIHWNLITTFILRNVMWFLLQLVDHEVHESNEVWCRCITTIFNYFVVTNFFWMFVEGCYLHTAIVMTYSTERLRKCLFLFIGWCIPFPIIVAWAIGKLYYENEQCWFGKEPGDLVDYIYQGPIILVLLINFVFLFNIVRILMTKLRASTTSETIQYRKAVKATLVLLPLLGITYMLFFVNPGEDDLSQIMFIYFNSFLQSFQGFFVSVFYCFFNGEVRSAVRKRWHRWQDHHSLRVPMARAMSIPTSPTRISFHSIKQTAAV
Sequence (P24387 whole entry): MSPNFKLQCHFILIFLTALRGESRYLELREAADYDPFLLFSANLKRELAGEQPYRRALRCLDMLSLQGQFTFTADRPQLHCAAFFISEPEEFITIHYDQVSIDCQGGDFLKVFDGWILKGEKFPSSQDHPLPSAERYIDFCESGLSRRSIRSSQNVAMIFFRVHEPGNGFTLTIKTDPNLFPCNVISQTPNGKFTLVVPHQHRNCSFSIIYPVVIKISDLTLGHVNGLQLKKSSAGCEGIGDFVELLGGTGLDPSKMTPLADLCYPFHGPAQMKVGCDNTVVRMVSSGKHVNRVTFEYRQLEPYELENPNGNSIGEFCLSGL
method-notes: Dose Response confirmation of uHTS hits for small molecule antagonists of the CRF-binding protein and CRF-R2 receptor complex.
Type: functional
condition-context: read-out: IC50_Mean
Activity calls are given as the source filed them.
Could you please pick one outcome from this set? 1 = active, 0 = inactive

Solved cases (3 shown):
COc1ccc([N+](=O)[O-])cc1NCc1ccccc1; 1
Cn1c(=O)c2cc3ccc(Cl)cc3nc2n(C)c1=O; 0
CC(=O)N(C(C)=O)c1cccc(N(Cc2ccccc2)Cc2ccccc2)c1; 1

Answer briefly: the call reported for CCCc1cc(O)nc(SCC(=O)N(CCC#N)c2ccc3c(c2)OCCO3)n1 in this assay.
0

How did this test come out for COC(=O)c1ccc(NC(=O)c2ccccc2NS(=O)(=O)c2ccccc2)cc1 ?
1

Outcome? CCCCOc1ccc2c(c1)/C(=C(\C(Cl)=C(Cl)Cl)[N+](=O)[O-])N2
0

====

# IC50 per entry for Estrogen receptor (Homo sapiens, UniProt P03372)
The source made the active and inactive calls.

A selection of reference data follows.
O=C(CSc1nc2scc(-c3ccco3)c2c(=O)n1-c1ccccc1)NCC1CCCO1 (configuration not stated); 30.1 µM (not active)
Fc1ccc(CNc2nc3ccccc3n3cnnc23)cc1; > 50 µM (not active)
Cc1ccc2nc(O)c(-c3nc4ccccn4c3NCc3ccco3)cc2c1; 25.7 µM (active)
CCOc1cc(N2CCOCC2)c(OCC)cc1NC(=O)c1cc(-c2ccco2)nc2ccccc12; 14.7 µM (active)
CCOC(=O)Cc1ccc(NS(=O)(=O)c2ccc(SC)cc2)cc1; > 50 µM (not active)

Field IC50 (entry O=S(=O)(/N=C(/Sc1ccccc1)c1ccccc1)c1ccccc1 ) reads 10.2 µM (active)

response.value for COc1cccc2sc(Nc3nnc(-c4ccc(F)cc4)o3)nc12 (field: IC50) = 25 µM (active)

====

target-or-system: Heat shock factor protein 1 (Mus musculus, UniProt P38532)
Sequence (P38532 whole entry): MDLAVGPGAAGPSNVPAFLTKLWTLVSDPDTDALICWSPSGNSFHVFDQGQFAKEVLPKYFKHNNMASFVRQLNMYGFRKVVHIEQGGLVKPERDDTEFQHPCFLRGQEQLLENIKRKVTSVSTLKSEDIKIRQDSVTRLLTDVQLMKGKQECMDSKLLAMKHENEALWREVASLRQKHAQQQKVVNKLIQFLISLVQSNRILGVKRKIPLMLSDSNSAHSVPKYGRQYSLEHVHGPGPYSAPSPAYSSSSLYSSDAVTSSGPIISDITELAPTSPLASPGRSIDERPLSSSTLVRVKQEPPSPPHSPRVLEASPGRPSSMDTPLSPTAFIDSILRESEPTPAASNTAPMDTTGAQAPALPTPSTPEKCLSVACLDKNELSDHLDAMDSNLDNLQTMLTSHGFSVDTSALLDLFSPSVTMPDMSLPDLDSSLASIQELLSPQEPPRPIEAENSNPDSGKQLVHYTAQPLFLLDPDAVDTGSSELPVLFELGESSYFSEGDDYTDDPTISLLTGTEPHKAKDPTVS
method-notes: enhancement of HSF1-driven luciferase signal – cell-based, NIH3T3, luminescence, dose retest, confirmation (AID 435004);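 note: stress induced by proteasome inhibitor MG132 added 30 min after compound; luciferase reporter driven by HSF1 response element in NIH3T3 cells; actives raise luminescence as potentiators of the MG132 stress response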
Assay type: functional
Activity calls are given as the source filed them.
Give one outcome, nothing more. List: T for active, F for inactive

Call for entry N=c1sccn1CC(=O)Nc1cc(Cl)ccc1Oc1ccccc1 :
F

How was CCC(C)n1c(SCC(=O)NC(=O)Nc2ccc3c(c2)OCCO3)nc2ccccc2c1=O (stereo not given) classified in this test?
F

Assay result, entry N#C/C(C(=O)NCc1ccccc1)=C1/N=C(NC(=O)c2ccco2)c2ccccc21 — outcome?
F

Kindly provide the recorded test outcome for the following compound: O=S(=O)(CC(CN1CCCCC1)N1CCCCC1)c1ccc2ccccc2c1 (stereo not given)
T

Could you kindly confirm the outcome this assay logged for COCCNC(=O)c1cccc(OC2CCN(Cc3ccc(Cl)c(F)c3)CC2)c1 ?
F

Could you kindly confirm the outcome this assay logged for N=C(N)NS(=O)(=O)c1ccc(NC(=S)NC(=O)c2ccc(Br)cc2)cc1 ?
F

In this assay, the call recorded for Cc1ccccc1/N=C1\SC(CC(=O)Nc2ccc3ccccc3c2)C(=O)N1Cc1ccccn1 (stereo not given) was what?
F

In this assay, the call recorded for CCOC(=O)C1=C(c2ccccc2)N=C(N)NC1c1ccc(OCc2ccc(Cl)cc2)c(OC)c1 (stereo not given) was what?
T

Recorded test call requested for O=C1CCN(Cc2ccccc2)N1
F

Could you check what this test reported for Cc1cc(C)n(Cc2ccc(Cl)cc2Cl)c(=O)c1S(=O)(=O)c1ccccc1 ?
F

====

Measured IC50 values are reported for all entries that follow.
target-or-system: UniProt:Q92731
Sequence (Q92731 whole entry): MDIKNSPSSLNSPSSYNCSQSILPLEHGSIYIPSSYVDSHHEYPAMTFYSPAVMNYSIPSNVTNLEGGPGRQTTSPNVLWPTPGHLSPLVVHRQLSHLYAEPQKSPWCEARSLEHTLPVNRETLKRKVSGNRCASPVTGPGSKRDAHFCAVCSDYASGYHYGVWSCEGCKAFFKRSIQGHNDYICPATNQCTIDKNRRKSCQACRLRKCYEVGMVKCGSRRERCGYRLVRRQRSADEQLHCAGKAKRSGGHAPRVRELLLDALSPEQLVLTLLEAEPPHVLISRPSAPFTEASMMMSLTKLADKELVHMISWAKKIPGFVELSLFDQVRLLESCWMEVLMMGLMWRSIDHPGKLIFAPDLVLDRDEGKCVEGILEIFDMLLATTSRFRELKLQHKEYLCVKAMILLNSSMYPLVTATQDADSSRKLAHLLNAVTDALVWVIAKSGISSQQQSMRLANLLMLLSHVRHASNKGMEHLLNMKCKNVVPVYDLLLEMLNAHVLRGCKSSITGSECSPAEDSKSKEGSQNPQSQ
method-notes: blockers of SRC-3 recruitment to ERβ – biochemical, ELISA, streptavidin-HRP readout, orthogonal assay, confirmation (AID 1060)

Worked examples, 3 compounds total:
c1ccc(Cc2nnc3sc(-c4ccco4)nn23)cc1; 15.2 µM (not active)
O=C(CSc1nc2scc(-c3ccco3)c2c(=O)n1-c1ccccc1)NCC1CCCO1 (centres undefined); 102 µM (not active)
CCOC(=O)N1CCN(C(c2cccnc2)c2ccc3cccnc3c2O)CC1 (centres undefined); 10.6 µM (not active)

Query Cc1cc(C)n2nc(C(=O)OCC(=O)c3cc(C)n(C)c3C)nc2n1 yields IC50 of > 50 µM (not active)

====

target-or-system: Protein skinhead-1 (Caenorhabditis elegans, UniProt P34707)
Sequence (P34707 whole entry): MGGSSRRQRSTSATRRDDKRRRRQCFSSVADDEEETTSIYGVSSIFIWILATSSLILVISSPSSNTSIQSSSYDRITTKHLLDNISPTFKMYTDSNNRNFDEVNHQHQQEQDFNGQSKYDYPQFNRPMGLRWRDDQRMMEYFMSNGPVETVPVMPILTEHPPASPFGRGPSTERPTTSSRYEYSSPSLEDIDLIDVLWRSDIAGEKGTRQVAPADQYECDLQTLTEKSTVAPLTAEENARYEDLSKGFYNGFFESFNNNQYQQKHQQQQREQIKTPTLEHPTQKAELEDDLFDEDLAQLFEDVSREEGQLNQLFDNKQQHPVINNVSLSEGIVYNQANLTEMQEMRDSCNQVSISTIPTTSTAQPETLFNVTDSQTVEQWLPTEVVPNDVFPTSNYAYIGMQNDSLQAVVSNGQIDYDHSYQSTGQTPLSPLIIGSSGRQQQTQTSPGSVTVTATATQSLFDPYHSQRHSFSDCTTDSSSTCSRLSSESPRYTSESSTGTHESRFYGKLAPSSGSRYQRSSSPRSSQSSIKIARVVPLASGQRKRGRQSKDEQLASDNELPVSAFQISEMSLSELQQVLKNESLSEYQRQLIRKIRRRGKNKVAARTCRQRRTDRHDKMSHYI
Format: functional
Active and inactive are the calls of the source.
Mark one answer only. Choices: active, inactive

What did the test return for Cc1cc(C(=O)CSc2nnc(C3COc4ccccc4O3)n2C)c(C)n1-c1ccc(F)cc1 (stereo not drawn) ?
inactive

Please share the test call associated with Clc1ccc(Cc2noc(-c3cccs3)n2)cc1 .
active

Just curious, what result did CCOC(=O)c1c(C)oc2c1c(/C=N/CCC(=O)O)c(O)c1ccccc12 get here?
inactive

====

target-or-system: Rac GTPase-activating protein 1 (Homo sapiens)
Sequence (Q9H0H5 whole entry): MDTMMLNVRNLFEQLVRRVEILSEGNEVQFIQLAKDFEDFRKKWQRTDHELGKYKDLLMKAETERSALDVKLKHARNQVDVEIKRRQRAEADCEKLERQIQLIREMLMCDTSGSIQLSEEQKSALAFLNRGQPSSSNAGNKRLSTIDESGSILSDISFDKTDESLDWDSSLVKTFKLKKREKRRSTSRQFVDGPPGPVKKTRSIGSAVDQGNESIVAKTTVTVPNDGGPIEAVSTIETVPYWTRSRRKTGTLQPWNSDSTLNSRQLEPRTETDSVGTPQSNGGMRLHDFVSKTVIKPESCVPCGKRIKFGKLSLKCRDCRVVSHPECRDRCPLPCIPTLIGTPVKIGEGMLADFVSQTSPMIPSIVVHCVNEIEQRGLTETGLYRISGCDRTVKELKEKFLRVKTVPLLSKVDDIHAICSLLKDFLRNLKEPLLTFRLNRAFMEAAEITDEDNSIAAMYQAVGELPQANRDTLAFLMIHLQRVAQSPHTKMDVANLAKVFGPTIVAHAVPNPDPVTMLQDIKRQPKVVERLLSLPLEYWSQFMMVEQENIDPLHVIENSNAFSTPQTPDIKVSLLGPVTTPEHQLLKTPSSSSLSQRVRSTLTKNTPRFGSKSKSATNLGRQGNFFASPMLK
method-notes: blockers of MgcRacGAP-driven Rac1 GTP hydrolysis – biochemical, ADP Hunter fluorescence, primary and confirmatory, confirmation (AID 624330)
Assay type: functional
Activity calls are given as the source filed them.
Documented IC50 across a set of molecules

Consider the reported IC50 for these molecules:
Cc1c(N2C(=O)/C(=C\c3ccc(N(C)C)cc3)N(C)C2=S)c(=O)n(-c2ccccc2)n1C; 74.4 µM (active)
COc1cc(CCNC2=CC(=O)c3ncccc3C2=O)ccc1O; 62.2 µM (active)
CC[N+](C)(CC)CCCCOc1ccc2c(c1)C(=O)c1cc(OCCCC[N+](C)(CC)CC)ccc1-2; 180 µM (active)
CC1CCC/C(=C\c2ccc(O)cc2)C1=O (configuration not stated); 26.6 µM (active)
O=C(N/N=C/c1sc2ccccc2c1O)c1cccc2ccccc12; 52.9 µM (active)

IC50 measured on Cc1nc(Nc2ccc(O)cc2)c2c3c(sc2n1)CCCC3 = 28.8 µM (active)

IC50 for CC(C)(C)c1nnc(N/N=C/c2ccc(O)cc2)n(N)c1=O is 123 µM (active)

# IC50 of O=C(CN1CCN(c2ccc(O)cc2)CC1)NCC(=O)Nc1ccc(F)c(F)c1F = 47 µM (active)

Per the record, Cc1ccccc1C(OCC(O)CN1CCN(CCO)CC1)c1ccccc1 (configuration not stated) has IC50 of 80.2 µM (active)

IC50 for COc1cc(/C=C/C=C2/CC/C(=C/C=C/c3ccc(O)c(OC)c3)C2=O)ccc1O is 99.4 µM (active)

Input Cc1c(O)ccc(NC(=O)/C=C/c2ccccc2)c1C . Output IC50: 41.8 µM (active)

FYI, the data here is from ChEMBL document CHEMBL1201862.
